inhibition at 24 h, 100 µM values by entry
test: Antiproliferative activity against BALB/c mouse splenocytes assessed as inhibition of [3H]thymidine incorporation into DNA at 100 uM after 24 hrs […] relative to control; assay type: cell-based, Splenocyte
Numeric only. Scale: %

Guide cases for inhibition at 24 h, 100 µM, answers given:
CC(C)CC(=O)O[C@@H]1OC=C(CO[C@@H]2O[C@H](CO)[C@@H](O)[C@H](O)[C@H]2O)[C@@H]2CC=C(CO)[C@@H]12 | 59
CC(C)CC(=O)O[C@@H]1OC=C(CO)[C@@H]2CC=C(CO)[C@@H]12 | 60

// switching to the query compound
Item `C=C1[C@H]2[C@H](OC(=O)CC(C)C)OC=C(CO[C@@H]3O[C@H](CO)[C@@H](O)[C@H](O)[C@H]3O)[C@@H]2C[C@@H]1O` : provide inhibition at 24 h, 100 µM
45

====

Entries and their measured inhibition at 24 h, 1 µM follow.
experiment: Antiproliferative activity against BALB/c mouse splenocytes assessed as inhibition of [3H]thymidine incorporation into DNA at 1 uM after 24 hrs […] relative to control; type: cell-based, Splenocyte
Use % as the unit, but write only the number.

Give the measured inhibition at 24 h, 1 µM for `CC(C)CC(=O)O[C@@H]1OC=C(CO)[C@@H]2CC=C(CO)[C@@H]12`
15

Find the measured inhibition at 24 h, 1 µM of `C=C1[C@H]2[C@H](OC(=O)CC(C)C)OC=C(CO[C@@H]3O[C@H](CO)[C@@H](O)[C@H](O)[C@H]3O)[C@@H]2C[C@@H]1O` and report it.
9

Supply reported inhibition at 24 h, 1 µM belonging to this molecule: `CC(C)CC(=O)O[C@@H]1OC=C(CO[C@@H]2O[C@H](CO)[C@@H](O)[C@H](O)[C@H]2O)[C@@H]2CC=C(CO)[C@@H]12`
4

These data points were gathered from ChEMBL document CHEMBL1158998.
